System: SW1990, PANC-1, and AsPC-1 cell lines
PROTOCOL TEXT: MTT cell viability assay, PDAC cell lines
Assay type: cell-based
CONDITION CONTEXT: Homo sapiens, 48 h, read-out: cytotoxicity IC50
READOUT LABEL: IC50

I'd like to know its IC50. The compound in question is `CC(C)=CCc1cc(/C=C2\OC(=O)C(c3ccc(O)c(CC=C(C)C)c3)=C2O)ccc1O`
6.32 to 10.5 µM

---

TARGET ENTITY: UniProtKB P17174
READOUT LABEL: Kd (nM)
Lab book: enter the figure in nM, no units written.

Can you look up Kd on UniProtKB P17174 for `CC(C)=CCc1cc(/C=C2\OC(=O)C(c3ccc(O)c(CC=C(C)C)c3)=C2O)ccc1O` ?
2140

---

Observed pIC50, system GOT1 (Homo sapiens).
Units for pIC50: none; it is -log10 of a concentration expressed in mol/L.

Look over these answered cases.
| COMPOUND | READOUT LABEL | REPORTED RESULT |
| --- | --- | --- |
| CO[C@H]1OC(=O)C(c2ccc(O)cc2)=C1Cc1ccc(O)c(CC=C(C)C)c1 [Compound 5, (+)-asperteretone B] | pIC50 | 4.72 |
| COC(=O)[C@]1(Cc2ccc(O)c(CC=C(C)C)c2)OC(=O)C(O)=C1c1ccc(O)c(CC=C(C)C)c1 | pIC50 | 4.58 |

Need pIC50, item `CC(C)=CCc1cc(/C=C2\OC(=O)C(c3ccc(O)c(CC=C(C)C)c3)=C2O)ccc1O`
5.23

---

PROTOCOL TEXT: MTT cell viability assay, nonmalignant pancreatic duct epithelial cells
Format: cell-based
CONDITION CONTEXT: human, HPDE6C7 nonmalignant pancreatic duct epithelial cells, read-out: cytotoxicity IC50
READOUT LABEL: IC50 at 48 h

What value of IC50 at 48 h has been recorded for this entry: CC(C)=CCc1cc(/C=C2\OC(=O)C(c3ccc(O)c(CC=C(C)C)c3)=C2O)ccc1O [Compound 6, aspulvinone H]
> 100 µM

All figures here come from paper PMC8618880.
